# TARGET OR TEST SYSTEM: T1, cynomolgus monkey BCMA (cynomolgus monkey, UniProt A0A2K5UD97 1-53)
# T1 construct: Soluble analyte in SPR; construct not described; also called cyBCMA; Cyno BCMA
# T1 sequence (A0A2K5UD97 entry or part of it): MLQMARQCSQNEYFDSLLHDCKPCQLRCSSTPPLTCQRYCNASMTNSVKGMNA
# EXPERIMENT NOTES: SPR, IgG immobilised, 37 C
OBSERVED PROPERTY: koff (s⁻¹)
Entry rule: numbers only, all in s⁻¹.

BINDER: L3.PY/L1.AH/H2.QL (antibody, V domains shown, IgG) VH: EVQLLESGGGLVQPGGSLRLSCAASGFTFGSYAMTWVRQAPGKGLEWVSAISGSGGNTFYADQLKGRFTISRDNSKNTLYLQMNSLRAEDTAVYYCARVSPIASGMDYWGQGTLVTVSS VL: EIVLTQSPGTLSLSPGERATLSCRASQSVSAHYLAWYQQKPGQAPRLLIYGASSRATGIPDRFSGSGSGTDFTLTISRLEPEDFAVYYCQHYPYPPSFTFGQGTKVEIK
OBSERVED PROPERTY: koff
NUMERIC RESULT: 0.00955

BINDER: L3.PY/L1.AH/H2.QR (antibody, V domains shown, IgG) VH: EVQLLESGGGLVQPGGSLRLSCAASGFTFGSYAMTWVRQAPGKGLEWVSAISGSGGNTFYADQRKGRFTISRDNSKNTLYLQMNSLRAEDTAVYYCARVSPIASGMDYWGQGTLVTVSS VL: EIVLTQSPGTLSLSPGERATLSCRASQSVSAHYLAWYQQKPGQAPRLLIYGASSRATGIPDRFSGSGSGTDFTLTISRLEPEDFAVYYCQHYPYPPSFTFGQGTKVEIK
OBSERVED PROPERTY: koff
NUMERIC RESULT: 0.00491

BINDER: L3.PY/H3.YA (antibody, V domains shown, IgG) VH: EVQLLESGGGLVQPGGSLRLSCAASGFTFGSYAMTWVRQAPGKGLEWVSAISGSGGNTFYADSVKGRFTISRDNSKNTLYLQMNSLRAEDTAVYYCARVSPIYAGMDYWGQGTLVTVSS VL: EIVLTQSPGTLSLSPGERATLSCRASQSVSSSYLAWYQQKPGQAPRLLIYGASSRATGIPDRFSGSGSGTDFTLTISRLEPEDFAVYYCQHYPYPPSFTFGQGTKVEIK
OBSERVED PROPERTY: koff
NUMERIC RESULT: 0.0054

BINDER: L3.PY/L1.PS/H3.YA (antibody, V domains shown, IgG) VH: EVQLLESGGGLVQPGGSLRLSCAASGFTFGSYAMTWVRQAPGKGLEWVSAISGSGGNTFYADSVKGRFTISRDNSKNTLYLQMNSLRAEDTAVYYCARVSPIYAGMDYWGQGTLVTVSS VL: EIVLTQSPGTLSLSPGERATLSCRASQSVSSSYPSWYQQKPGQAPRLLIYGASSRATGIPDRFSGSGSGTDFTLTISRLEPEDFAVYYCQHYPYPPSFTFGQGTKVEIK
OBSERVED PROPERTY: koff
NUMERIC RESULT: 0.00998

# evaluate next
Query block: Please give the measured koff for this binder: L3.PY/L1.AH/H3.YA (antibody, V domains shown, IgG) VH: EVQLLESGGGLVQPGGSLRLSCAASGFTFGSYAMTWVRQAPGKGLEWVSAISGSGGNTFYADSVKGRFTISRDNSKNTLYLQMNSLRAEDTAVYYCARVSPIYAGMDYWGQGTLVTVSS VL: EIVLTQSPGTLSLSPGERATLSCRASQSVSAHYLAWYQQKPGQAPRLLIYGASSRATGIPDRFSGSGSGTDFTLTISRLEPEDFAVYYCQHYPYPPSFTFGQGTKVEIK
Result block: 0.00526
